// provenance: the domain aggregation screens of Martell et al. (2025)

Assay: soluble fraction after stress (log2 fold change); higher = more stays soluble; pooled small domains, quantitative proteomics
Details: stress: 50 degC
Recorded soluble fraction (log2) for the following sequences
Reply with the value as a number alone.

Here is how some sequences turned out for soluble fraction (log2).
{"chainSequence": "HMNAELSTVQAAEVLNVSRPFLIKLLEDGAIPHRKVGKHRRVRMEDVMSYKAAIDTEREAVLDQLAA", "soluble fraction (log2)": 0.123}
{"chainSequence": "HMTQNSAITNRVLYMQRTLRQYGYAVPESGNFDRTTRAHAAEFLYNATGLPVRENQSVQEFYRAFQRVQG", "soluble fraction (log2)": -0.981}

Can you share its soluble fraction (log2)? I mean this sequence: `HMLGFELVGIRGNNPESTIIILERDDYRLVEQGQNINSSVIFSHIDGSRAYFFDGQTYTFLDI` -2.95

Report soluble fraction (log2) for `HMGRKPATTIPLQVRNAVLDLYRTKYYGANFQHYTELLHEHEGIRISTSSVAKILEAEYILSPK` please. -1.69

Returns the measured soluble fraction (log2) for the input sequence. Input: `HMDPTYYFNLYPNPSKDEVSLFTNFTGKINIEILDLAGKSILSDNPISTISLVSLKEGLYLVKVKS` -0.208

Quick check: soluble fraction (log2) of `HMPKETFLNLDEEKRQAIINVLLKNFSEQHISQVKVSAIVSGIGMSRGAFYKYFEDLEDAYRFTISYFSA` ? -0.0102

What value of soluble fraction (log2) has been reported for the following sequence? `HMQRYYDVLGLQKGVSPEELKKTYRELSKKYHPDAHHNSPLRDLAEAKFKEINEAYEKIKEFLDNNF` 0.15

Return reported soluble fraction (log2); argument: `HMIYQEGMQVKYQGKEYVISEIQDYKTYKTIKLDDNEGYLNGFITGSEILSFRNESELDLEI` -0.314

----------
Readings of soluble fraction (log2) for the listed sequences
Experiment: soluble fraction after stress (log2 fold change); higher = more stays soluble; pooled small domains, quantitative proteomics
Conditions: stress: 50 degC
The answer should be written as a number, with no unit following it.

Here is how some sequences turned out for soluble fraction (log2).
{"chainSequence": "HMLSTRERMSSLMAQLQVQQFMPFHRLFTISEGRMGVIVTFLAMMELVKENLIKLIQAQEYGPIHVSLG", "observedMeasurement": 0.0428}
{"chainSequence": "HMNLGVIYSLKAEVRSEPNTFSTRLFEVHEGLKVSINQLENDWVEIELLDGKTGWISNDQIRLI", "observedMeasurement": -2.12}
{"chainSequence": "HMQKYSTIIGVIELRQSGIGYRTTKKRYNIGNSTVTLIMNRFHELGLSLEELKAMPPKKVEEAFYPPE", "observedMeasurement": -2.43}
{"chainSequence": "HMKKDLATYAYEHIKQMVIDRELMPGERIQQEVLARELGISRTPLVTALNRLASENLVELEANKGFSVRRF", "observedMeasurement": -0.0386}
{"chainSequence": "HMDKNNLLIIYRTNSEGTPYAFSVTPSAKSLDALHKDAKEMLPFLEKSMNNFFSIQIWERAEYLKY", "observedMeasurement": -0.643}

Let us examine a further case.
What soluble fraction (log2) value was documented for this sequence, `HMSLTEEQVDSGLKEIRLALLEADVALPVVKNFITNIKPKAIGQEIIRSTSPGQMIVKIVYDELVSIL` ? -0.0891
